Data provenance is patent US10085449B2.

System: small brown planthopper
Assay: whole plant or invertebrate
Type: in vivo
Settings: Laodelphax striatellus, soil, 72 h, read-out: Insecticidal effects (mortality), small brown planthopper second-instar larvae
MEASURE NAME: mortality at 0.01 mg/pot (%)
Only the number, expressed in %, is required.

MOLECULE | UNIT STRING | mortality at 0.01 mg/pot
O=C(N=c1ccccn1Cc1ccc(Cl)nc1)C(F)(F)F | % | 100

INPUT: State the recorded mortality at 0.01 mg/pot for this entry: O=C(N=c1ccccn1Cc1ccc(Cl)nc1)C(F)(F)Cl
OUTPUT: 80

INPUT: State the recorded mortality at 0.01 mg/pot for this entry: CC(c1ccc(Cl)nc1)n1ccccc1=NC(=O)C(F)(F)F (stereo not shown)
OUTPUT: 75

INPUT: State the recorded mortality at 0.01 mg/pot for this entry: O=C(N=c1ccccn1Cc1ccc(Br)nc1)C(F)(F)F
OUTPUT: 100

INPUT: State the recorded mortality at 0.01 mg/pot for this entry: O=C(N=c1ccccn1Cc1ccc(F)nc1)C(F)(F)F
OUTPUT: 100

INPUT: State the recorded mortality at 0.01 mg/pot for this entry: O=C(N=c1ccccn1Cc1cnc(Cl)c(F)c1)C(F)(F)F
OUTPUT: 100

INPUT: State the recorded mortality at 0.01 mg/pot for this entry: O=C(N=c1ccccn1Cc1ccc(Cl)nc1)C(F)F
OUTPUT: 100

====

System: common cutworm
Assay: whole plant or invertebrate
Type: in vivo
Settings: foliar application, 100 ppm
Experimental: Leaf discs 5.0 cm in diameter were cut from cabbage plants grown in pots, and these were sprayed with solutions of the inventive compounds at a predetermined concentration prepared to 50% acetone/water (containing 0.05% Tween 20). The treated leaf discs were air dried, following which third-instar larvae were released onto the discs. […] Three days after released, the numbers of live and dead insects were counted, and the mortality was calculated from the following formula. […]
MEASURE NAME: Insecticidal effects (mortality), common cutworm third-instar larvae
Lab note: record the figure alone, no unit after it.

In the examples that follow, each entry is paired with its recorded Insecticidal effects (mortality), common cutworm third-instar larvae.
LINE NOTATION | TARGET ENTITY | TEST VALUE
O=C(N=c1ccccn1Cc1cnc(Cl)c(F)c1)C(F)(F)F | common cutworm | 56
O=C(N=c1ccccn1Cc1ccc(Br)nc1)C(F)(F)F | common cutworm | 0
O=C(N=c1ccccn1Cc1ccc(F)nc1)C(F)(F)F | common cutworm | 30

Here's the next entry for you.
INPUT: State the recorded Insecticidal effects (mortality), common cutworm third-instar larvae for this entry: O=C(N=c1ccccn1Cc1ccc(Cl)nc1)C(F)(F)F
OUTPUT: 30

====

System: small brown planthopper
Test: whole plant or invertebrate
Type: in vivo
Conditions: Laodelphax striatellus, soil, 72 h, read-out: Insecticidal effects (mortality), small brown planthopper second-instar larvae
MEASURE NAME: mortality at 0.005 mg/pot (%)
Only the number, expressed in %, is required.

In the examples that follow, each entry is paired with its recorded mortality at 0.005 mg/pot.
LINE NOTATION | TEST VALUE
O=C(N=c1ccccn1Cc1ccc(F)nc1)C(F)(F)F | 30
O=C(N=c1ccccn1Cc1cnc(Cl)c(F)c1)C(F)(F)F | 75

INPUT: State the recorded mortality at 0.005 mg/pot for this entry: O=C(N=c1ccccn1Cc1ccc(Cl)nc1)C(F)(F)F
OUTPUT: 95

INPUT: State the recorded mortality at 0.005 mg/pot for this entry: O=C(N=c1ccccn1Cc1ccc(Cl)nc1)C(F)F
OUTPUT: 33

INPUT: State the recorded mortality at 0.005 mg/pot for this entry: O=C(N=c1ccccn1Cc1ccc(Br)nc1)C(F)(F)F
OUTPUT: 70

INPUT: State the recorded mortality at 0.005 mg/pot for this entry: O=C(N=c1ccccn1Cc1ccc(Cl)nc1)C(F)(F)Cl
OUTPUT: 30

====

System: small brown planthopper
Experiment: whole plant or invertebrate
Assay type: in vivo
Conditions: Laodelphax striatellus, 72 h; rice soil drenching, 0.05 mg/pot (Table 13); read-out: Small brown planthopper (rice soil drenching), effect
Method: Rice seedlings grown in pots were subjected to soil drenching treatment with solutions of the inventive compounds at a predetermined concentration prepared to 10% acetone/water. Three days following treatment, ten second-instar small brown planthopper larvae were released onto each seedling. […] Three days after released, the numbers of live and dead insects were counted, and the mortality was calculated from the following formula. […]
MEASURE NAME: pest or weed control at 0.05 mg/pot (%)
Only the number, expressed in %, is required.

COMPOUND | TARGET ENTITY | pest or weed control at 0.05 mg/pot (%)
O=C(N=c1ccccn1Cc1cnc(Cl)c(F)c1)C(F)(F)F | small brown planthopper | 90
O=C(N=c1ccccn1Cc1ccc(Br)nc1)C(F)(F)F | small brown planthopper | 100
CC(=O)/N=c1\ccccn1Cc1ccc(Cl)nc1 [Comparative Example 3, reference compound] | small brown planthopper | 10
O=C(/C=C1\SCCN1Cc1ccc(Cl)nc1)C(F)(F)F [Comparative Example 5, reference compound] | small brown planthopper | 95
N#CN=c1ccccn1Cc1ccc(Cl)nc1 [Comparative Example 2, reference compound] | small brown planthopper | 20

INPUT: State the recorded pest or weed control at 0.05 mg/pot for this entry: O=C(N=c1ccccn1Cc1ccc(Cl)nc1)C(F)(F)F
OUTPUT: 100

INPUT: State the recorded pest or weed control at 0.05 mg/pot for this entry: O=C(N=c1ccccn1Cc1ccc(Cl)nc1)C(F)(F)Cl
OUTPUT: 100

INPUT: State the recorded pest or weed control at 0.05 mg/pot for this entry: O=C(/N=C1\SCCN1Cc1ccc(Cl)nc1)C(F)(F)F [Comparative Example 8, reference compound]
OUTPUT: 20

INPUT: State the recorded pest or weed control at 0.05 mg/pot for this entry: CC(c1ccc(Cl)nc1)n1ccccc1=NC(=O)C(F)(F)F (stereo not drawn)
OUTPUT: 100

====

mortality at 500 ppm listing for selected molecules.
Tested on: western flower thrips
Assay: whole plant or invertebrate
Assay type: in vivo
Conditions: Frankliniella occidentalis, foliar, read-out: Insecticidal effects (mortality), western flower thrips first-instar larvae
Only the number, expressed in %, is required.

In the examples that follow, each entry is paired with its recorded mortality at 500 ppm.
MOLECULE | MEASURE NAME | TEST VALUE
O=C(N=c1ccccn1Cc1ccc(F)nc1)C(F)(F)F | mortality at 500 ppm | 100
O=C(N=c1ccccn1Cc1ccc(Cl)nc1)C(F)(F)C(F)(F)F | mortality at 500 ppm | 100
O=C(N=c1ccccn1Cc1cnc(Cl)nc1)C(F)(F)F | mortality at 500 ppm | 100
O=C(N=c1ccccn1Cc1ccc(Cl)nc1)C(F)(F)Cl | mortality at 500 ppm | 40
O=C(N=c1ccccn1Cc1ccc(Cl)nc1)C(F)(F)F | mortality at 500 ppm | 100
CC(c1ccc(Cl)nc1)n1ccccc1=NC(=O)C(F)(F)F (centres unmarked) | mortality at 500 ppm | 90

INPUT: State the recorded mortality at 500 ppm for this entry: O=C(N=c1ccccn1Cc1cnc(Cl)c(F)c1)C(F)(F)F
OUTPUT: 90

INPUT: State the recorded mortality at 500 ppm for this entry: O=C(N=c1ccccn1Cc1ccc(Br)nc1)C(F)(F)F
OUTPUT: 85

====

Tested on: small brown planthopper
Test: whole plant or invertebrate
Format: in vivo
Details: Laodelphax striatellus, 72 h; rice soil drenching, 0.05 mg/pot (Table 13); read-out: Small brown planthopper (rice soil drenching), effect
MEASURE NAME: pest or weed control at 0.05 mg/pot (%)
Only the number, expressed in %, is required.

COMPOUND | TARGET ENTITY | UNIT STRING | pest or weed control at 0.05 mg/pot
O=C(N=c1ccccn1Cc1cnc(Cl)nc1)C(F)(F)F [Compound 243] | small brown planthopper | % | 100
O=C(N=c1ccccn1Cc1ccc(F)nc1)C(F)(F)F [Compound 229] | small brown planthopper | % | 100
O=C(N=c1ccccn1Cc1ccc(Cl)nc1)C(F)F [Compound 238] | small brown planthopper | % | 100
O=C(/C=C1\NCCN1Cc1ccc(Cl)nc1)C(F)(F)F [Comparative Example 4, reference compound] | small brown planthopper | % | 100
O=C(/N=C1\NCCN1Cc1ccc(Cl)nc1)C(F)(F)F [Comparative Example 7, reference compound] | small brown planthopper | % | 63

Here's the next entry for you.
INPUT: State the recorded pest or weed control at 0.05 mg/pot for this entry: O=C(N=c1ccccn1Cc1ccc(Cl)nc1)C(F)(F)C(F)(F)F [Compound 242]
OUTPUT: 100
